B1: LINE1-full (parent)
chain: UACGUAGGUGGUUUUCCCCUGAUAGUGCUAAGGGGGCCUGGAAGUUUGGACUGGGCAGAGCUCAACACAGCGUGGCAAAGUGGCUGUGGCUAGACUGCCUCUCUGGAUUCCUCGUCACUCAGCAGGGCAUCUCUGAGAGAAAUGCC

variants of: B1; test: self-cleavage, relative activity (ratio to wild type); higher = more cleavage; in vitro, sequencing; the parent is a self-cleaving ribozyme
measurement kind: self-cleavage
Reply with the value as a number alone.

See these solved cases before continuing.
U5A U20A: 1.12
U9C A107G: 1.61
U5A U132C: 1.25

Data request: If you can, please state the reported self-cleavage value of U29A U143A .
Data returned: 0.84

Data request: Requested read-out: self-cleavage. Entry: G114A G127A
Data returned: 1.74

Data request: Name the reported self-cleavage value associated with the variant U15C A79U
Data returned: 1.88

Data request: Find the recorded self-cleavage belonging to G48A A140G and report it.
Data returned: 1.02

Data request: For the variant G33C A136G , what self-cleavage is on record?
Data returned: 0

Data request: So what's the measured self-cleavage for this one? C90U U100C
Data returned: 0
